Task for the reader: assign each of the following binders its reported Phage binding ELISA signal, Anti-PSMA Fab.
# ASSAY TARGET: T1, Anti-PSMA Fab
# T1 construct: In the phage ELISA the PSMA Fab was biotinylated and captured on neutravidin coated plates; also called 006 PSMA Fab
# TEST NAME: phage ELISA; biotinylated PSMA Fab on neutravidin plate, clonal phage supernatant, anti-M13 HRP detection;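 also: wells preincubated with PSMA antigen in blocking buffer or with blocking buffer only before clonal phage were added for a short incubation, then bound phage detected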

// for each binder in input: emit Phage binding ELISA signal, Anti-PSMA Fab
1. LEIFCVPMWMCEGL [Phage-3869]
2. PSQMCVPTWMCVGF [Phage-3862]

Output line:
1.16
1.17
